- SYSTEM_UNDER_TEST: VEGFR II (KDR) (Homo sapiens, UniProt P35968)
- Sequence (P35968 20-1356, species assumed): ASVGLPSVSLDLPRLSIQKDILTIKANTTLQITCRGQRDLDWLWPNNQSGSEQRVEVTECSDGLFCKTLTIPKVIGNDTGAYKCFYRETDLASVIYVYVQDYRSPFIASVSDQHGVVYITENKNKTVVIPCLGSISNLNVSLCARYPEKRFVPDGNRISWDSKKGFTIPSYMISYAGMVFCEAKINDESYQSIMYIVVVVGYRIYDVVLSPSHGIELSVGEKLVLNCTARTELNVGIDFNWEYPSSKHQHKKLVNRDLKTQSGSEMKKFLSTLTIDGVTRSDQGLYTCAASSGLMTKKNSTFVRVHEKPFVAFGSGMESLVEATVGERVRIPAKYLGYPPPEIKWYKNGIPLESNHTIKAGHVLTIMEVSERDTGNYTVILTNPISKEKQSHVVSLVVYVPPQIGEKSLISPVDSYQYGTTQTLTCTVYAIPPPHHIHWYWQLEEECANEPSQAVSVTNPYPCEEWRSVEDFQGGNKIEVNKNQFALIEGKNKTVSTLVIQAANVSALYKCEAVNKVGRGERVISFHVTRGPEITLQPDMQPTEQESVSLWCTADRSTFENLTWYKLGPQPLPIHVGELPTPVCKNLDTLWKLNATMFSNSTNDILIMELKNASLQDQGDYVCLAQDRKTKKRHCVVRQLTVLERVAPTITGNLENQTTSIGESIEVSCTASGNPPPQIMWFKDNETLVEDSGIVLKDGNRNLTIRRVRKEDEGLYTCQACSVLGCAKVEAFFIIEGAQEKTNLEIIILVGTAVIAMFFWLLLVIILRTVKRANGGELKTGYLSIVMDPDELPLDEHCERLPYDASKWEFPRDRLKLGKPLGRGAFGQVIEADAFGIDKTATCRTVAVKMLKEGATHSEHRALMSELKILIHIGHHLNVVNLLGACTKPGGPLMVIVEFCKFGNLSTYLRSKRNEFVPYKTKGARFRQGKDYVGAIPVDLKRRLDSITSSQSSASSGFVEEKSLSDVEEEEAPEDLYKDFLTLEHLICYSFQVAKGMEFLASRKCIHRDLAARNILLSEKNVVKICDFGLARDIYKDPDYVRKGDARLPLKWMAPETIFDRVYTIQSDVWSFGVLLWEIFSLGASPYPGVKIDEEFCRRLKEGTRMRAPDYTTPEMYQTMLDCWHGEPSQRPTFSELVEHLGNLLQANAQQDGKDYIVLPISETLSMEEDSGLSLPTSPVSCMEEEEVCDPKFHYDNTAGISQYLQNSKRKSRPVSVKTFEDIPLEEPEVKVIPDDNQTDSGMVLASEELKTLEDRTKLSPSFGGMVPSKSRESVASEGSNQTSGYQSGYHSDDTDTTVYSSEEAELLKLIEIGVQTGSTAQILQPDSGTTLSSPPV
REPORTED_ENDPOINT: IC50 (µM)

Consider the worked cases shown below.
COMPOUND: COc1ccc2cc(NC(=O)c3ccccc3NCc3ccc(C#N)nc3)c(=O)oc2c1 [Example 6]
SYSTEM_UNDER_TEST: VEGFR II (KDR) (Homo sapiens, UniProt P35968)
READOUT_UNIT: µM
OBSERVED_RESULT: 0.3

COMPOUND: N#CCn1ncc2ccc(NC(=O)c3ccccc3NCc3ccnc(C#N)c3)cc21 [Example 5]
SYSTEM_UNDER_TEST: VEGFR II (KDR) (Homo sapiens, UniProt P35968)
READOUT_UNIT: µM
OBSERVED_RESULT: 0.3

COMPOUND: COc1ccc2cc(NC(=O)c3ccccc3NCc3ccnc(C#N)c3)c(=O)oc2c1 [Example 11]
SYSTEM_UNDER_TEST: VEGFR II (KDR) (Homo sapiens, UniProt P35968)
READOUT_UNIT: µM
OBSERVED_RESULT: 0.2

(I) Cn1ncc2ccc(NC(=O)c3ccccc3NCc3ccnc(C#N)c3)cc21 [Example 10]
(II) N#Cc1ccc(CNc2ccccc2C(=O)Nc2ccc3c(c2)CC(=O)N3)cn1 [Example 4]
Exam item: Just curious, which one has the larger IC50 reading, I or II ? Answer = label.
Marked response: II

(P) COc1ccc2cc(C)c(NC(=O)c3ccccc3NCc3ccnc(C#N)c3)nc2c1 [Example 12]
(Q) N#Cc1cc(CNc2ccccc2C(=O)Nc2cc3ccccc3cn2)ccn1 [Example 1]
Exam item: Which one would you say has the larger IC50 value: P , or Q ? Record your answer as the label of the chosen record.
Marked response: P
